# Tested on: 521955-158-R2-J5-PDC complex spheroid viability;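 further: spheroids exposed to agents for seven days; percent of DMSO vehicle control luminescence viability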
# experimental-protocol: Anticancer human tumor 521955-158-R2-J5-PDC patient-derived pancreatic carcinoma cell line growth inhibition
# experimental-context: second compound 1 µM; first compound 0.01 µM; active compounds read low
# Text: Multicellular complex tumor spheroid response to LSD1 Inhibitor Iadademstat in combination with a variety of drugs and investigational agents in selected tumor cell lines The current study was undertaken to assess response to LSD1 inhibitors in combination with standard-of-care drugs and investigational agents in solid tumor complex spheroid models as well as in the K-562 leukemia. […] Compounds. […] If the clinical Cmax for an agent had not been determined, the highest concentration tested was 10 microM. […]
property-name: viability, T/C (%)
Give bare numbers, in %.

Example cases with answers are listed next.
>>> measured_value("CC(C)CC(NC(=O)CNC(=O)c1cc(Cl)ccc1Cl)B1OC(=O)CC(CC(=O)O)(C(=O)O)O1 (centres undefined) + NC1CCC(NC2CC2c2ccccc2)CC1")
4.23
>>> measured_value("CC[C@@]1(O)C(=O)OCc2c1cc1n(c2=O)Cc2cc3c(CN(C)C)c(O)ccc3nc2-1 + NC1CCC(NC2CC2c2ccccc2)CC1")
11.7
>>> measured_value("CC1COCCN1c1cc(-c2ccnn2C)c2ccnc(-c3ccn[nH]3)c2n1 (centres undefined) + NC1CCC(NC2CC2c2ccccc2)CC1")
14.4
>>> measured_value("Nc1ncn(C2CC(O)C(CO)O2)c(=O)n1 (centres undefined) + NC1CCC(NC2CC2c2ccccc2)CC1")
90.1

List the reported viability, T/C of each compound below.
1. CC1COCCN1c1cc(-c2ccnn2C)c2ccnc(-c3ccn[nH]3)c2n1 (centres undefined) + NC1CC1c1ccc(-c2cccc(O)c2)cc1
2. Cn1ncnc1C1c2n[nH]c(=O)c3cc(F)cc(c23)NC1c1ccc(F)cc1 (centres undefined) + NC1CCC(NC2CC2c2ccccc2)CC1

Response given:
1: 19.6; 2: 87.2
